Tested on: L1210
Experiment: Cytotoxicity against murine leukemia (L1210) cells was determined at 94h
Assay type: functional, cell-based
Conditions: Mus musculus, L1210, 94 h
Please assign Not fulfilled whenever IC50 is at or above 20 µM, and Fulfilled whenever it is below.

q: Consider the compound `NCCCN(CCCCNCc1c2ccccc2cc2ccccc12)CCCCN(CCCN)CCCCNCc1c2ccccc2cc2ccccc12` . Is its IC50 strictly less than 20 µM?
a: Not fulfilled

q: Query `NCCCCN(CCCN)CCCCCNCc1c2ccccc2cc2ccccc12` next
a: Fulfilled

q: Query `NCCCNCCCCN(CCCN)CCCCNc1ccnc2cc(Cl)ccc12` next
a: Not fulfilled

q: Query `NCCCN(CCCCNc1c2ccccc2nc2ccccc12)CCCCN(CCCN)CCCCNc1c2ccccc2nc2ccccc12` next
a: Not fulfilled

q: Query `NCCCNCCCCN(CCCN)CCCCNc1c2ccccc2nc2ccccc12` next
a: Fulfilled

q: Query `CCCCNc1c2ccccc2nc2ccccc12` next
a: Fulfilled

q: Query `NCCCN(CCCCCNCc1c2ccccc2cc2ccccc12)CCCCN(CCCN)CCCCCNCc1c2ccccc2cc2ccccc12` next
a: Not fulfilled

q: Query `NCCCN(CCCCCNc1c2ccccc2nc2ccccc12)CCCCN(CCCN)CCCCCNc1c2ccccc2nc2ccccc12` next
a: Not fulfilled

###

Test system: L1210
Assay: Cytotoxicity against murine leukemia (L1210) cells was determined at 94h
Format: functional, cell-based
Conditions: Mus musculus, L1210, 94 h
MEASURED_ATTRIBUTE: IC50 (µM)
Return type: number; implicit unit µM.

1) NCCCCN(CCCN)CCCCNCc1c2ccccc2cc2ccccc12 :: 6

Next compound, please.
q: I'd like to know its IC50. The compound in question is `NCCCCN(CCCN)CCCCNc1c2ccccc2nc2ccccc12`
a: 55

// data source = ChEMBL document CHEMBL1134664
